- Tested on: BT-474 human mammary gland ductal carcinoma cells
- test: Inhibitory response of test compounds against BT-474 cells (Cell Titer-Glo, 72 h)
- Assay type: cell-based
- condition-set: Homo sapiens
Numbered stars: 1 amine (or outer) side, 2 acyl side, 3 side chain; on linkers, the order of the positions; unused ones are H or OH. Bridge positions count the residues as written; N and C are the ends. Square brackets hold non-standard residues; d marks the D form. Peptide text beside a SMILES is read from it. ξ: configuration not given here. X2 = C/C(=C\CCC[C@@H](O[*:2])C(C)C)C(=O)[*:1]; X10 = C/C(=C\CCCCO[*:2])C(=O)[*:1]; dNMeF = CN[C@H](Cc1ccccc1)C(=O)O; Ile(3ξ) = CCC(C)[C@H](N)C(=O)O; dHica = CC(C)C[C@@H](O)C(=O)O; dHiv = CC(C)[C@@H](O)C(=O)O; dAbu = CC[C@@H](N)C(=O)O; Sar = CNCC(=O)O
readout-kind: IC50

Observe how each entry below is paired with its result.
{"columns": ["compound", "IC50"],
 "data": [
  ["CCC(C)[C@@H]1NC(=O)CN(C)C(=O)[C@@H](Cc2ccccc2)N(C)C(=O)[C@H](C)NC(=O)[C@@H](C(C)C)OC(=O)/C(C)=C/CCCCOC(=O)[C@@H](CC)NC1=O (stereo partly shown) [Compound 80] ([dHiv]A[dNMeF][Sar][Ile(3ξ)][dAbu]; linker N-C via X10)", "> 10000 nM"],
  ["C/C=C(\\C)[C@H]1OC(=O)[C@@H](CCCCNC(=O)OC(C)(C)C)NC(=O)[C@H]([C@H](C)CC)NC(=O)CN(C)C(=O)[C@@H](Cc2ccccc2)N(C)C(=O)[C@H](C)NC(=O)[C@@H](CC(C)C)OC(=O)/C(C)=C/C[C@H](CCSC)[C@@H]1C", "< 20 nM"],
  ["C/C=C(\\C)[C@H]1OC(=O)[C@@H](C)NC(=O)[C@H]([C@H](C)CC)NC(=O)CN(C)C(=O)[C@@H](Cc2ccccc2)N(C)C(=O)[C@H](C)NC(=O)[C@@H](CC(C)C)OC(=O)/C(C)=C/C[C@H](OC(=O)N(C)CCNC)[C@@H]1C", "< 20 nM"],
  ["C/C=C(\\C)[C@H]1OC(=O)[C@@H](C)NC(=O)[C@H](C(C)CC)NC(=O)CN(C)C(=O)[C@@H](Cc2ccccc2)N(C)C(=O)[C@H](C)NC(=O)[C@@H](CC(C)C)OC(=O)/C(C)=C/C[C@H](CC(=O)NCCOCCOCCOCCO)[C@@H]1C (stereo partly shown)", "< 20 nM"],
  ["C/C=C(\\C)[C@H]1OC(=O)[C@@H](C)NC(=O)[C@H]([C@H](C)CC)NC(=O)CN(C)C(=O)[C@@H](Cc2ccc(Cl)cc2)N(C)C(=O)[C@H](CCCCNC(=O)c2ccc(C(C)=O)cc2)NC(=O)[C@@H](CC(C)C)OC(=O)/C(C)=C/CC[C@@H]1C", "200 to 10000 nM"],
  ["CCC(C)[C@@H]1NC(=O)CN(C)C(=O)[C@@H](Cc2ccccc2)N(C)C(=O)[C@H](C)NC(=O)[C@@H](CC(C)C)OC(=O)/C(C)=C/CCC[C@H](C(C)C)OC(=O)[C@@H](C)NC1=O (stereo partly shown) [Compound 87] ([dHica]A[dNMeF][Sar][Ile(3ξ)][dA]; linker N-C via X2)", "200 to 10000 nM"]
]}

QUERY: Report IC50, nothing else, for this compound: `C/C=C(\C)[C@H]1OC(=O)[C@@H](C)NC(=O)[C@H]([C@H](C)CC)NC(=O)CN(C)C(=O)[C@@H](Cc2ccccc2)N(C)C(=O)[C@H](C)NC(=O)[C@@H](CC(C)C)OC(=O)/C(C)=C/C[C@H](CC(=O)N(C)CCN(C)C(=O)c2ccc(C=O)cc2)[C@@H]1C`
RESULT: < 20 nM
